system under test: mouse Claudine18.2 (mouse) (UniProt P56857)
method description: FACS on CHOK1-m18.2 cells
observation type: FACS MFI
Just the number.

As a guide, the following entries are already answered.
binder | observation type | observed value
Ab02 (antibody, V domains shown) VH: QVQLKESGPGLVAPSQSLSITCTVSGFSLTSYAINWVRQPPGKGLEWLGVIWTGGGTNYNSALKSRLSINKDNSKSQVFLKMNSLQTDDTARYYCARFYDGYYSWFAYWGQGTLVTVSA VL: DIVMTQSHKFMSTSVGDRVSITCKASQDVGTAVTWYQQKPGQSPKLLIYWASTRHTGVPDRFTGSGSGTDFTLTISNVQSEDLADYFCQQYSSYPFTFGSGTKLEIK | FACS MFI | 2040
Ab26 (antibody, V domains shown) VH: EVMLVESGGGLVKPGGSLKLSCTASGFTFRSYTMSWVRQTPEKRLEWVATITGGGGNTYFLDSVKGRFTFSRDNAKNALYLQMNSLRSEDTALYYCARLGQTQRNAMDYWGQGTSVTVSS VL: DIVMTQSPSSLSVSAGEKVTMSCKSSQSLLNSGNQMNYLAWYQQKPGQPPKLLIYGASTRESGVPDRFTGSGSGTDFTLTISSVQAEDLAIYYCQNDHTYPLTFGAGTKLEL | FACS MFI | 15700

Now examine the next entry.
Recorded result, Ab38 (antibody, V domains shown) VH: QIQLVQSGPELKKPGETVKISCKASGYTFTNYGMSWVKQAPGKGLKWMGWINTYSGVPTYADDFKGRFVFSLEASASTAYLQINNLKNEDAATYFCSRWSGPDPLEDHWGQGTTLTVSS VL: QIVLTQSPAIMSASPGEKVTMTCTASLSLNYIHWYRQRSGTSPKRWIYDTSKLASGVPSRFSGSGSGTSYSLTISSMEAEDAATYYCQQWSSNPWTFGGGTKLEIK , FACS MFI: 20400

Recorded values, source patent US20230095569A1.
